Assignment: determine reported IC50 for the given substances.
Target: FAM-Ahx-BID/MCL-1 complex (Homo sapiens)
Construct: residues 172 – 327; His6-SUMO (N, cleaved yes); made in house; host or cells: E. coli BL21-Gold (pET28a)
Sequence (Q07820 172-327, one chain of several): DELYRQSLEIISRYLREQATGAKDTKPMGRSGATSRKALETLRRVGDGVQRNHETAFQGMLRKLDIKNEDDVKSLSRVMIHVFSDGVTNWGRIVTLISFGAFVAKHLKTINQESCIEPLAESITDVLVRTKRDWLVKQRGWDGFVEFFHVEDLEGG
Experiment: Fluorescence anisotropy competition assay, FAM-Ahx-BID/MCL-1
Format: binding
Give bare numbers, in µM.

Ac-GELLAIKQELLRIIGDLVAIKQELLNIKQGYG-NH2 [CC-Tet_E1]
7.4

Below are some substances; for each one, tell me its IC50.
1. Ac-GEILALKQEILRLIGDNVALKQEILNLKQGYG-NH2 [CC-Di_E1]
2. Ac-GEILAIKQEILRIIGDNVAIKQEILNIKQGYG-NH2 [CC-Tri_E1]

Result:
1. 0.8
2. 68
